Reference for the values: BigSolDB 2.1

- test-settings: in n-propanol, 293.15 K
endpoint: solubility (mole fraction)
Please respond with just the number, no unit label.

Entry "COC(=O)[C@H](N)c1ccc(O)cc1" ; solubility (mole fraction) = 0.00173

* * *

- test-settings: in n-propyl acetate, 323.15 K
endpoint: solubility (mole fraction)
Answer with a bare number; do not write a unit.

Please fill in: solubility (mole fraction) reported for "COC(=O)[C@H](N)c1ccc(O)cc1" = 0.00275

* * *

- test-settings: in isopropanol, 303.15 K
endpoint: solubility (mole fraction)
Answer field: number only, no words.

Query "COC(=O)[C@H](N)c1ccc(O)cc1" yields solubility (mole fraction) of 0.00163
